Provenance of the data: patent US20210087291A1

target-desc: T1, human TIM-3 on cells (human, UniProt Q8TDQ0 22-301)
T1 construct: also called CHO-Tim3; rec CHOK1 cells expressing huTIM-3
assay-overview: flow cytometry, human CD14+ monocytes donor1
Exercise: state measured specific binding MFI for each of the binders provided.
Please append the unit to your numeric answer.

Exercise: specific binding MFI for Tim3_0038 (antibody, V domains shown) VH: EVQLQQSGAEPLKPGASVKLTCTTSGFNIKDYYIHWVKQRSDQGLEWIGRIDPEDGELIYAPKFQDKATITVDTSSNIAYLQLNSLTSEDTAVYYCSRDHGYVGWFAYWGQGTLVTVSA VL: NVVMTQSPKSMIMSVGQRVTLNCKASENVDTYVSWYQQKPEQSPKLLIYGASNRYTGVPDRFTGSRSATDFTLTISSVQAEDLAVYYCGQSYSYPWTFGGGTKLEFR ?
Key: 1640 MFI

Exercise: specific binding MFI for Tim3_0022 (antibody, V domains shown) VH: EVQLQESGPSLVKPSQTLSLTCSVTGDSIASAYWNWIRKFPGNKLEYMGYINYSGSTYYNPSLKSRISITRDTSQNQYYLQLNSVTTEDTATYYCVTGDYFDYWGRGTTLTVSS VL: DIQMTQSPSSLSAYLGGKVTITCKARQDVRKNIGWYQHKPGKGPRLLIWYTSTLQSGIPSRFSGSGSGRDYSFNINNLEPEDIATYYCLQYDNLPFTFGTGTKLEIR ?
Key: 1470 MFI

Exercise: specific binding MFI for Tim3_0030 (antibody, V domains shown) VH: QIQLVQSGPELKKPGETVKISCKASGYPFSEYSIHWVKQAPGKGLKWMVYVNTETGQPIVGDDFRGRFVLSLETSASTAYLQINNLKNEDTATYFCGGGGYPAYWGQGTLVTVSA VL: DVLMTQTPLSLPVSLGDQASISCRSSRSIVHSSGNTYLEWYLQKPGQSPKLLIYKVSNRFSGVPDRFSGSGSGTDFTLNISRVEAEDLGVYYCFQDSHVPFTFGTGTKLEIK ?
Key: 1410 MFI
